- Target of assay: T1, natriuretic peptide receptor-B (human)
- T1 chain: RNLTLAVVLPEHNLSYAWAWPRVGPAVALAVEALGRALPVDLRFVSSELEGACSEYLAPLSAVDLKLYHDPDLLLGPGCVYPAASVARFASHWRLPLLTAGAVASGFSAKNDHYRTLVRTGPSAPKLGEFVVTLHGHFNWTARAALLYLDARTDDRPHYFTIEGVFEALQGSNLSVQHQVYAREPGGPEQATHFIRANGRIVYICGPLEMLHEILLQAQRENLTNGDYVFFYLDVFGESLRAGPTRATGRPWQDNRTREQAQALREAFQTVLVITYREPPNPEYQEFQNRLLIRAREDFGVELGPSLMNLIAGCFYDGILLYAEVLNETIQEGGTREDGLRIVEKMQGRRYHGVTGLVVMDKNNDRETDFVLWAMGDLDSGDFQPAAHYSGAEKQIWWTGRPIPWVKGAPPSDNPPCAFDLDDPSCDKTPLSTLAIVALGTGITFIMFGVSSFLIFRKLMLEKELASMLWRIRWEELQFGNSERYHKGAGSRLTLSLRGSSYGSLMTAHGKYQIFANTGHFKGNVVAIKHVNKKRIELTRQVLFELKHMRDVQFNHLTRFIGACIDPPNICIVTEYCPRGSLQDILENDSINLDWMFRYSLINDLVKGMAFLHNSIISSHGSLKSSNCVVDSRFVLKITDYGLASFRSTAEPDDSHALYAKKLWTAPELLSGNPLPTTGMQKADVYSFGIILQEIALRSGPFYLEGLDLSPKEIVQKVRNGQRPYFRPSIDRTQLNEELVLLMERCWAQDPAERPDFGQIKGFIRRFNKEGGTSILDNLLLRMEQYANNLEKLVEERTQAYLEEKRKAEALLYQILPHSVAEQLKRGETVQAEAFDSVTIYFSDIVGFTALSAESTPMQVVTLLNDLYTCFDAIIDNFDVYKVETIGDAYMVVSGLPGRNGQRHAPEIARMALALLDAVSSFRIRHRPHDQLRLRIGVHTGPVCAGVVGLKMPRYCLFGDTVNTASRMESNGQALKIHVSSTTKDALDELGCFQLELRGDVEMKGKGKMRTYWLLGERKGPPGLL
- Test name: cell-based or functional assay
Numbered stars: 1 amine (or outer) side, 2 acyl side, 3 side chain; on linkers, the order of the positions; unused ones are H or OH. Square brackets hold non-standard residues; d marks the D form. Ends that are not written are not given here. Sni = (S)-nipecotic acid, O=C([C@H]1CCCN([*:1])C1)[*:2]; Tyr(3-I) = N[C@@H](Cc1ccc(O)c(I)c1)C(=O)O; Hyp = O=C(O)[C@@H]1C[C@@H](O)CN1; NMeF = CN[C@@H](Cc1ccccc1)C(=O)O; AR‑314‑172 = not defined here; Aoc(2) = CCCCCC[C@H](N)C(=O)O; NMeL = CN[C@@H](CC(C)C)C(=O)O; Aic = NC1(C(=O)O)Cc2ccccc2C1; 6054 = not defined here; leu = not defined here; Occ = octanoic acid; GABA = NCCCC(=O)O
The binders listed here are annotated with their EC50 group, cGMP in GTM-3 cells.

// known answers, use as guide
[Tyr(3-I)][GABA][Aoc(2)]AFRL[Hyp][NMeL]DRI-NH2 (also: lower-case ala, arg: meaning not given here) [JAL-1431] :: ≤ 15 µM
[Occ][Sni]F[Aic]L[Hyp][NMeL]DRI-NH2 [JAL-1893] :: ≤ 5 µM
[AR‑314‑172][leu]L[Hyp][NMeL]DRI-NH2 (reading uncertain; also: printed as (AR-314-172)-leu-Leu-Hyp-Nml-Asp-Arg-Ile-NH2) [JAL-1874] :: ≤ 5 µM
[Tyr(3-I)][Aoc(2)]AFRL[Hyp][NMeL]DRI-NH2 (also: lower-case ala, arg: meaning not given here) [JAL-1430] :: ≤ 1 µM
[Occ][Sni][NMeF]GLPLDRI-NH2 [JAL-0967_01] :: ≤ 15 µM

Tell me the measured EC50 group, cGMP in GTM-3 cells of 6054-FRL[Hyp][NMeL]DRI-NH2 (not fully specified (some residues); printed as 6054-Phe-arg-Leu-Hyp-Nml-Asp-Arg-Ile-NH2; reading uncertain) [JAL-1239] , please.
≤ 5 µM
